Recorded values, source patent US20250277057A1.

Measured kon, listed per entry.
measured on: T1, human activated protein C (human, UniProt P04070 43-197; P04070 212-461)
T1 construct: In the plasma assays aPC is generated in human plasma with Protac; also called aPC; haPC
measurement notes: Octet BLI, antibody on Protein A sensor, huAPC 3.13-50 nM, 1:1 model, 25 C, pH 7.4
property: kon

1. HAPC-14-8 (antibody, V domains shown, Whole IgG, backbone hIgG1; also called HPAC 14-8) VH: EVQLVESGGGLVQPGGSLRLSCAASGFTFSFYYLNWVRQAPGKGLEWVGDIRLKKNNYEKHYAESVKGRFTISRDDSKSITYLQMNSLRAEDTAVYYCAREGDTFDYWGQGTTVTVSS VL: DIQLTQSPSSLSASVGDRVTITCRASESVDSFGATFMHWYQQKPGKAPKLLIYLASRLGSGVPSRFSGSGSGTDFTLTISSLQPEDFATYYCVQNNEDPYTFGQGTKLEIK : 250000 M⁻¹ s⁻¹
2. HAPC-14-3 (antibody, V domains shown, Whole IgG, backbone hIgG1; also called HPAC 14-3; No. 3) VH: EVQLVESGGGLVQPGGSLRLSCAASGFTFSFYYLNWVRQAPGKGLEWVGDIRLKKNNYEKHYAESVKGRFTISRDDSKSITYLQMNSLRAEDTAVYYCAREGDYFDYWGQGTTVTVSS VL: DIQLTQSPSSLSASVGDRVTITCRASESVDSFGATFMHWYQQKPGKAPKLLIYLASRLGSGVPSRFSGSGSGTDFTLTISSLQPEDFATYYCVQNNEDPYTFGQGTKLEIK : 320000 M⁻¹ s⁻¹
